Target under test: human recombinant adrenergic α2A receptor (Homo sapiens, UniProt P08913)
Construct: expressed in transfected cells; host or cells: insect Sf9 cells
Sequence (P08913 whole entry): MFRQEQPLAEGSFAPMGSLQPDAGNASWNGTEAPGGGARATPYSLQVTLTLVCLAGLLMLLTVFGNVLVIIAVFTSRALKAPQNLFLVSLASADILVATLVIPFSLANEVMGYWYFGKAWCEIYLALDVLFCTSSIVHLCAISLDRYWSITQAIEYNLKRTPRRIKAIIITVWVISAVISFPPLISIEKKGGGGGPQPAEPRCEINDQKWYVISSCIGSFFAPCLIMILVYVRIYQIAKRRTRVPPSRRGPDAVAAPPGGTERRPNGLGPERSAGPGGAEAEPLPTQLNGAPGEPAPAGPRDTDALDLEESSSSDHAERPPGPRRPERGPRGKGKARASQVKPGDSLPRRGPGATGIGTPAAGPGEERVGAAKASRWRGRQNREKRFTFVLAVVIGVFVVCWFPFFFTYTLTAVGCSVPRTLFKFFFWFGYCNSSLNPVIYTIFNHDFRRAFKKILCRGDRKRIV
Protocol details: Radioligand binding, adrenergic α2A ([3H]MK-912)
Study conditions: compound at 0.1 μM; [3H]MK-912; repeat datapoints each shown; 0.1 µM
Experimental: To evaluate in radioligand binding assays the activity of compounds of the invention, human recombinant adrenergic α2A receptor expressed in insect Sf9 cells (Uhlen, S. et al, J. Pharmacol. Exp. Ther. 271:1558, 1994) in a modified Tris-HCl buffer (50 mM Tris-HCl, pH 7.4, 12.5 mM MgCl2, 2 mM EDTA) was used. […] Receptor proteins were filtered and washed, the filters were then counted to determine [^3H]MK-912 specifically bound. […]
Quantity measured: Percentage inhibition of ligand binding, Adrenergic α2A (0.1 μM) (%)

Molecule	Target under test	Value
Cc1cnc2c(c1)c1c(n2CC(C)(O)c2ccc(C)nc2)CCN2CCCC12 (single isomer, unassigned) [148d]	human recombinant adrenergic α2A receptor (Homo sapiens, UniProt P08913)	−11
Cc1ccc2c(c1Cl)c1c(n2CC(C)(O)c2cccnc2)CCN(C)C1 (single isomer, unassigned) [II-124b]	human recombinant adrenergic α2A receptor (Homo sapiens, UniProt P08913)	7
Cc1ccc2c(c1)c1c(n2C2=C(c3ccc4c(ccn4C)c3)CCC2)CCN(C)C1	human recombinant adrenergic α2A receptor (Homo sapiens, UniProt P08913)	98
Cc1cnc2c(c1)c1c(n2CC(C)(O)c2ccc(F)cc2)CCN2CCCC12 (single isomer, unassigned) [II-149c]	human recombinant adrenergic α2A receptor (Homo sapiens, UniProt P08913)	5
CC1Cc2c(c3cc(Cl)ccc3n2CC(C)(O)c2cccnc2)CN1C (single isomer, unassigned) [II-147b]	human recombinant adrenergic α2A receptor (Homo sapiens, UniProt P08913)	15
Cc1ccc2c(c1)c1c(n2CC(OC(=O)CCC(=O)O)c2ccncc2)CCN2CCCC12 (single isomer, unassigned) [V-18a]	human recombinant adrenergic α2A receptor (Homo sapiens, UniProt P08913)	13
Cc1cnc2c(c1)c1c(n2CC(C)(O)c2ccc(F)cc2)CCN(C)C1 (single isomer, unassigned) [138a]	human recombinant adrenergic α2A receptor (Homo sapiens, UniProt P08913)	−8
CCN1CCc2c(c3cc(C)ccc3n2CC(O)c2ccc(C)cc2)C1 (centres unmarked) [compound 203]	human recombinant adrenergic α2A receptor (Homo sapiens, UniProt P08913)	88
Cc1ccc2c(c1)c1c(n2CC(C)(O)c2cnccn2)CCN2CCCC12 (single isomer, unassigned) [176b]	human recombinant adrenergic α2A receptor (Homo sapiens, UniProt P08913)	12
Cc1ccc2c(c1)c1c(n2CC(O)c2ccc(F)cc2)CCN2CCCC12 (single isomer, unassigned) [II-120b]	human recombinant adrenergic α2A receptor (Homo sapiens, UniProt P08913)	98
CC1Cc2c(c3cc(Cl)ccc3n2CC(C)(O)c2cccnc2)CN1C (single isomer, unassigned) [II-147a]	human recombinant adrenergic α2A receptor (Homo sapiens, UniProt P08913)	57
Cc1ccc2c(c1)c1c(n2CC(OC(=O)N(C)C)c2ccncc2)CCN(C)C1 (centres unmarked) [compound 141]	human recombinant adrenergic α2A receptor (Homo sapiens, UniProt P08913)	5
Cc1ccc2c(c1)c1c(n2CC(CC(O)C(C)(C)C)c2ccncc2)CCN(C)C1 (single isomer, unassigned) [II-227b]	human recombinant adrenergic α2A receptor (Homo sapiens, UniProt P08913)	6
Cc1ccc2c(c1)c1c(n2CC(C)(O)c2cccnc2)CCN(C)C1C (single isomer, unassigned) [II-152d]	human recombinant adrenergic α2A receptor (Homo sapiens, UniProt P08913)	8
Cc1cnc2c(c1)c1c(n2CC(C)(O)c2ccc(F)cc2)CCN2CCCC12 (single isomer, unassigned) [II-149d]	human recombinant adrenergic α2A receptor (Homo sapiens, UniProt P08913)	7
Cc1ccc2c(c1)c1c(n2CC(C)(O)c2cccnc2)C(c2ccccc2)N(C)CC1 (centres unmarked) [II-112a]	human recombinant adrenergic α2A receptor (Homo sapiens, UniProt P08913)	10
Cc1cc(C)c2c(c1)c1c(n2CC(O)c2ccncc2)CCN2CCCC12 (single isomer, unassigned) [II-125d]	human recombinant adrenergic α2A receptor (Homo sapiens, UniProt P08913)	71
Cc1ccc2c(c1)c1c(n2CC(O)c2ccc(C(N)=O)cc2)CCN(C)C1 (single isomer, unassigned) [139b]	human recombinant adrenergic α2A receptor (Homo sapiens, UniProt P08913)	6
Cc1ccc2c(c1Cl)c1c(n2CC(C)(O)c2cccnc2)CCN(C)C1 (single isomer, unassigned) [II-124a]	human recombinant adrenergic α2A receptor (Homo sapiens, UniProt P08913)	23
Cc1ccc2c(c1)c1c(n2CC(N=[N+]=[N-])c2ccc(F)cc2F)CCN(C)CC1 (single isomer, unassigned) [V-21b]	human recombinant adrenergic α2A receptor (Homo sapiens, UniProt P08913)	43
Cc1ccc2c(c1)c1c(n2CC(C)(O)c2cccnc2)C(O)CN(C)C1 (single isomer, unassigned) [II-151a]	human recombinant adrenergic α2A receptor (Homo sapiens, UniProt P08913)	1
CN1CCc2c(c3cc(C(F)(F)F)ccc3n2CC(C)(O)c2cccnc2)C1 (single isomer, unassigned) [174a]	human recombinant adrenergic α2A receptor (Homo sapiens, UniProt P08913)	22
COc1ccc(/C(C)=C/n2c3c(c4cc(C)ccc42)CCN(C)CC3)cc1F	human recombinant adrenergic α2A receptor (Homo sapiens, UniProt P08913)	78
Cc1cnc2c(c1)c1c(n2CCc2ccc(C)nc2)CCN(C)C1	human recombinant adrenergic α2A receptor (Homo sapiens, UniProt P08913)	2
CC(O)(Cn1c2c(c3cc(Cl)cnc31)C1CCCN1CC2)c1cccnc1 (single isomer, unassigned) [IV-210d]	human recombinant adrenergic α2A receptor (Homo sapiens, UniProt P08913)	13
Cc1ccc2c(c1)c1c(n2CC(C)(O)c2cccnc2)CCN(C)C1C (single isomer, unassigned) [II-152b]	human recombinant adrenergic α2A receptor (Homo sapiens, UniProt P08913)	6
Cc1ccc2c(c1)c1c(n2CC(OC(=O)c2ccncc2)c2ccncc2)CCN(C)C1 (single isomer, unassigned) [147a]	human recombinant adrenergic α2A receptor (Homo sapiens, UniProt P08913)	3
CC(O)(Cn1c2c(c3cc(Cl)ccc31)CNCC2)c1cccnc1 (single isomer, unassigned) [175b]	human recombinant adrenergic α2A receptor (Homo sapiens, UniProt P08913)	7
Cc1ccc2c(c1)c1c(n2CC(OC(=O)C(C)(C)C)c2ccncc2)CCN(C)C1 (single isomer, unassigned) [130b]	human recombinant adrenergic α2A receptor (Homo sapiens, UniProt P08913)	31
